Target: GTP-loaded KRAS proteins (residue 1-169 of KRAS4B) (Homo sapiens, UniProt P01116, G12V)
Construct: recombinant KRAS proteins (residue 1-169 of KRAS4B); His6 (TEV protease-cleavable) (cleaved yes); made in house; host or cells: E. coli
Assay: RAS GTP hydrolysis rate assay (GTPase-Glo) with cyclophilin A
Assay type: biochemical
Details: bound in tri-complex with cyclophilin A; in some embodiments KRAS^G12V is the isoform used
Catalogue of molecules with associated hydrolyzer class: RAS(ON) GTP hydrolysis rate relative to the intrinsic hydrolysis rate
# unit: Moderate | format: bare number

Observe how each entry below is paired with its result.
- Molecule: "CO[C@@H](C)c1ncc(N2CCN(C)CC2)cc1-c1c2c3cc(ccc3n1CC(F)(F)F)-c1csc(n1)C[C@H](NC(=O)[C@H]1C[C@@H]1C)C(=O)N1CCC[C@H](N1)C(=O)OCC(C)(C)C2 (atropisomer, axis not shown) [compound 11]"
  Data value: 11
- Molecule: "CCn1c(-c2cccnc2[C@H](C)OC)c2c3cc(ccc31)-c1csc(n1)C[C@H](NC(=O)[C@H](C(C)C)N(C)C(=O)N1CC(OC)C1)C(=O)N1CCC[C@H](N1)C(=O)OCC(C)(C)C2 (atropisomer, axis not shown) [compound 19]"
  Data value: 19

Entry CO[C@@H](C)c1ncccc1-c1c2c3cc(ccc3n1CC(F)(F)F)CCOC[C@H](NC(=O)[C@H]1C[C@@H]1C)C(=O)N1CCC[C@H](N1)C(=O)OCC(C)(C)C2 (atropisomer, axis not shown) [compound 10] ; hydrolyzer class: RAS(ON) GTP hydrolysis rate relative to the intrinsic hydrolysis rate = 10

hydrolyzer class: RAS(ON) GTP hydrolysis rate relative to the intrinsic hydrolysis rate in this record for CCO[C@@H]1c2nc(cs2)-c2ccc3c(c2)c(c(-c2cc([C@@H]4CCN5CCOC[C@@H]5C4)cnc2[C@H](C)OC)n3CC)CC(C)(C)COC(=O)[C@@H]2CCCN(N2)C(=O)[C@H]1NC(=O)[C@H]1[C@H](C)[C@@H]1C (atropisomer, axis not shown) [compound 16] : 16

// recorded hydrolyzer class: RAS(ON) GTP hydrolysis rate relative to the intrinsic hydrolysis rate for CCn1c(-c2cc(N3CCN(C)CC3)cnc2[C@H](C)OC)c2c3cc(ccc31)-c1csc(n1)C[C@H](NC(=O)[C@H]1C[C@@H]1C)C(=O)N1CCC[C@H](N1)C(=O)OCC(C)(C)C2 (atropisomer, axis not shown) [compound 12] : 12

----------
Biological target: GTP-loaded KRAS proteins (residue 1-169 of KRAS4B) (Homo sapiens, UniProt P01116, G12V)
Construct: recombinant KRAS proteins (residue 1-169 of KRAS4B); His6 (TEV protease-cleavable) (cleaved yes); made in house; host or cells: E. coli
Assay: RAS GTP hydrolysis rate assay (GTPase-Glo) with cyclophilin A
Assay type: biochemical
Conditions: bound in tri-complex with cyclophilin A; in some embodiments KRAS^G12V is the isoform used
Reported property: hydrolyzer class: RAS(ON) GTP hydrolysis rate relative to the intrinsic hydrolysis rate (Moderate)
Write it as a number; the unit Moderate goes unstated.

hydrolyzer class: RAS(ON) GTP hydrolysis rate relative to the intrinsic hydrolysis rate reading for CCn1c(-c2cc(N3CCN(C)CC3)cnc2[C@H](C)OC)c2c3cc(ccc31)-c1csc(n1)C[C@H](NC(=O)[C@H](C(C)C)N(C)C(=O)N1CC(N(C)C)C1)C(=O)N1CCC[C@H](N1)C(=O)OCC(C)(C)C2 (atropisomer, axis not shown) : 14
